Data credit: PubChem BioAssay

assay protocol: inhibitors of Sendai virus-induced IRF3 signaling, primary screen, TLR/RLR signaling modifier project, cell-based, Sendai virus stimulus, luciferase, 10K MLSCN set (AID 602276);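 also: firefly luciferase from ISG56 promoter only with Renilla not read in this screen; 0% = Sendai virus plus DMSO and 100% = medium plus DMSO without virus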
measurement conditions: HEK293 RL24 IRF3 luciferase reporter, at 10 µM, stronger effect = higher value

- molecule: "COCCNC(=O)C1CCCN(c2ncccn2)C1 (stereo unspecified)"
  unit abbrev: "%"
  inhibition: 14.2
- molecule: "C=COC(=O)CSc1snc(SCC(=O)OC)c1C#N"
  unit abbrev: "%"
  inhibition: 15.5
- molecule: "O=C(CN(C(=O)CCC(=O)Nc1nccs1)c1ccccc1F)NCC1CCCO1 (stereo unspecified)"
  unit abbrev: "%"
  inhibition: 8.97
- molecule: "CCC(Sc1nc(-c2ccccc2)c(C#N)c(=O)[nH]1)C(=O)Nc1cc(C)on1 (stereo unspecified)"
  unit abbrev: "%"
  inhibition: 6.22
- molecule: "Cc1nnc(N2C(=O)C(O)=C(C(=O)c3ccco3)C2c2ccc(F)cc2)s1 (stereo unspecified)"
  unit abbrev: "%"
  inhibition: 12.3
- molecule: "CCOC(=O)C1=C(C)N=C2SCCC(=O)N2C1c1cc(Br)ccc1OC (stereo unspecified)"
  unit abbrev: "%"
  inhibition: 17.2
- molecule: "Cc1ccc(-c2nc3cc(NC(=O)C(C)C)ccc3o2)cc1C"
  unit abbrev: "%"
  inhibition: 19.2
- molecule: "COc1ccc(OC)c(C(=O)CSc2nnc(-c3ccc(OC)c(OC)c3)o2)c1"
  unit abbrev: "%"
  inhibition: 12
- molecule: "C=CCn1c(-c2ccc(OC)cc2)nc2ccccc21"
  unit abbrev: "%"
  inhibition: -24.1
- molecule: "O=C(c1ccccc1Br)N1CCN(c2ccccc2)CC1"
  unit abbrev: "%"
  inhibition: 9.32
- molecule: "Clc1ccc(C2Nc3ccccc3-n3cccc32)cc1 (stereo unspecified)"
  unit abbrev: "%"
  inhibition: 5.43
- molecule: "Cc1ccc(CCNC(=O)C2CCC(=O)N2C2CCCC2)cc1 (stereo unspecified)"
  unit abbrev: "%"
  inhibition: 1.44
- molecule: "COc1ccc(CCn2c(C)cc(C(=O)CSc3nnnn3C)c2C)cc1"
  unit abbrev: "%"
  inhibition: 0.703
- molecule: "O=C(NC1CCCC1)c1ccc2nc[nH]c2c1"
  unit abbrev: "%"
  inhibition: 9.91
- molecule: "COc1ccc(OCC(=O)Nc2cccc3ncccc23)cc1"
  unit abbrev: "%"
  inhibition: 1.02
- molecule: "O=C(c1cnc2n(c1=O)CCS2)N1CCc2ccccc21"
  unit abbrev: "%"
  inhibition: 14.9
- molecule: "CC1Cn2c(nnc2-c2ccc(F)cc2)S1 (stereo unspecified)"
  unit abbrev: "%"
  inhibition: -1.17
- molecule: "O=C(O)CCn1c(=O)c2ccccc2c2ccccc2c1=O"
  unit abbrev: "%"
  inhibition: -4.94
- molecule: "COCc1nnc(NC(=O)c2ccc(S(=O)(=O)N(C)c3ccccc3)cc2)o1"
  unit abbrev: "%"
  inhibition: 13.8
- molecule: "O=C(O)C1C2C=CC3(CN(C4CCCC4)C(=O)C13)O2 (stereo unspecified)"
  unit abbrev: "%"
  inhibition: 12.5
- molecule: "Cc1ccc2nc(NC(=O)CN(C)S(=O)(=O)c3cccc4nsnc34)sc2c1"
  unit abbrev: "%"
  inhibition: 32.6

* * *

assay protocol: inhibitors of poly I:C-induced TLR3 signaling, primary screen, cell-based, poly I:C stimulus, luciferase, 10K MLSCN set (AID 602277)
measurement conditions: HEK293-TLR3 RL24 IRF3 luciferase reporter, at 10 µM, stronger effect = higher value
reported property: inhibition (%)

- compound: "CC12CN3CC(C)(CN(C1)C3c1cc(Br)ccc1O)C2=O (centres undefined)"
  result number: 37.4
- compound: "CCOc1cccc(C(=O)N2CCCCC2c2cccnc2)c1 (centres undefined)"
  result number: 19.7
- compound: "O=P1(O)C=C(c2ccccc2)NC(c2ccccc2)=C1"
  result number: 7.48
- compound: "COC(=O)c1ccccc1OCC(=O)NC1CCCCC1"
  result number: -61.5
- compound: "O=C(C1CCN(C2CC(=O)N(c3ccc(F)cc3)C2=O)CC1)N1CCOCC1 (centres undefined)"
  result number: 13
- compound: "O=C(CSc1nnc(CNC(=O)c2c(F)cccc2Cl)o1)c1ccccc1"
  result number: 18.3
- compound: "Cc1cc(C)nc(Sc2ccc3nnc(C(F)(F)C(F)(F)C(F)(F)F)n3n2)n1"
  result number: 24.8
- compound: "CC/C(O)=C(/C#N)c1nnc2n1CCCCC2"
  result number: 11.5
- compound: "CCn1c(C(C#N)/C(=N\\S(=O)(=O)c2cccs2)c2ccccc2)nc2ccccc21 (centres undefined)"
  result number: 40.9
- compound: "CCC1CCCCN1CCNS(=O)(=O)c1ccc2c(c1)oc(=O)n2C (centres undefined)"
  result number: 39.8
- compound: "CCCCn1nnc(NC(=O)c2cc3ccccc3o2)n1"
  result number: -27.4
- compound: "CC1CCc2nn(CC(=O)NCCN3CCCCC3C)cc2C1 (centres undefined)"
  result number: 33.8
- compound: "Cc1c(C(=O)NCCC2=CCCCC2)oc2ccc(S(=O)(=O)N3CCC4(CC3)OCCO4)cc12"
  result number: 29.4
- compound: "Cc1cc(C)c(NC(=O)CSc2nnc(-c3ccncc3)n2Cc2ccco2)c(C)c1"
  result number: 10.2
- compound: "C=CCn1c(SCc2ccc(C#N)cc2)nnc1-c1cccc(Cl)c1"
  result number: 35.5
- compound: "COc1ccc(OC)c(-c2cc(C(=O)NCc3cccs3)no2)c1"
  result number: 32
- compound: "CN(C)c1cccc2c(S(=O)(=O)Nc3ccccn3)cccc12"
  result number: 19.3
- compound: "Cn1cc(Br)c(C(=O)NC2CCCCC2)n1"
  result number: 5.88
- compound: "Cc1ccc(S(=O)(=O)NCC(=O)N(CC(=O)NC2CCCCC2)Cc2ccco2)cc1"
  result number: 20

* * *

assay protocol: inhibitors of E-selectin induction by TNFa, primary screen, imaging, HUVEC, immunofluorescence, MLSMR starter and 10KST1 sets (AID 487);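 also: signal is fraction of cell area covered by stained E-selectin grains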
measurement conditions: HUVEC TNFalpha-induced E-selectin immunofluorescence imaging, at 2 µM; stronger effect = higher value
Label scheme for inhibition: lower than -30% is n, -30% and above is y.

- compound: "COC(=O)Cc1c(C)c2ccc(OCC(=O)N3CCOCC3)cc2oc1=O"
  label value: "y"
- compound: "CC(=O)Nc1ccc(S(=O)(=O)Nc2nc3ccccc3nc2N2CCCC2)cc1"
  label value: "n"
- compound: "CCOC(=O)N1CCN(C(=O)CSc2nnc(-c3cccc(Cl)c3)o2)CC1"
  label value: "y"
- compound: "COc1ccc(CNC(=O)c2cnc3n(c2=O)CCS3)cc1"
  label value: "y"
- compound: "CN1C(=O)NC(c2ccccc2)C2=C1CN(Cc1ccccc1)C2=O (stereo unspecified)"
  label value: "n"
- compound: "CC(=O)c1cnc2cc(-c3ccccc3)nn2c1C"
  label value: "n"

* * *

assay protocol: inhibitors of mutant huntingtin aggregation, primary screen, imaging, exon1htt(103Q)mCFP cells, high-content imaging (AID 483);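 also: compound exposure lasted 3 days before fixation; percent of the per-plate median nuclei count of sample wells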
measurement conditions: exon1htt(103Q)mCFP cell line, aggregate imaging, at 2 µM; measured here: cell count, toxicity
Here the recorded nuclei count is given for each entry.
reported property: nuclei count (%)

- compound: "O=C(COc1cccc(Oc2ccccc2)c1)Nc1ncccn1"
  unit abbrev: "%"
  result number: 103
- compound: "O=C(CSc1nccn1Cc1ccccc1)Nc1nccs1"
  unit abbrev: "%"
  result number: 83.7
- compound: "Brc1ccc2[nH]c3nc(SCCN4CCOCC4)nnc3c2c1"
  unit abbrev: "%"
  result number: 84.2
- compound: "COc1cc2[nH]c(=O)c(C(=O)NCCCN3CCCCC3)c(O)c2cc1OC"
  unit abbrev: "%"
  result number: 98.3
- compound: "C=CCn1c(C)cc(C(=O)CSc2nc3ccccc3o2)c1C"
  unit abbrev: "%"
  result number: 105
- compound: "O=C(c1cccs1)N1CCN=C1SCc1ccccc1"
  unit abbrev: "%"
  result number: 106
- compound: "O=C(NCc1ccccc1)c1ccc(OC2CSC2)cc1"
  unit abbrev: "%"
  result number: 97.9
- compound: "COc1cccc(C2=NOC(C(=O)N3CCN(c4ccccc4)CC3)C2)c1OC (configuration not stated)"
  unit abbrev: "%"
  result number: 113
- compound: "c1ccc(-c2cc(N3CCCCC3)ncn2)cc1"
  unit abbrev: "%"
  result number: 101
- compound: "O=C(NC1CC1)c1cccc(Nc2ccc(-c3ccc4c(c3)OCCO4)nn2)c1"
  unit abbrev: "%"
  result number: 106
- compound: "O=C(c1ccccc1-c1ccccc1)N1CCN(c2ccccn2)CC1"
  unit abbrev: "%"
  result number: 17.3
- compound: "COc1ccc(-c2nc3c(n2O)CCC/C3=N\\O)cc1"
  unit abbrev: "%"
  result number: 98.1

* * *

Here the recorded inhibition is given for each entry.
assay protocol: inhibitors of poly I:C-induced TLR3 signaling, primary screen, cell-based, poly I:C stimulus, luciferase, 10K MLSCN set (AID 602277)
measurement conditions: HEK293-TLR3 RL24 IRF3 luciferase reporter, at 10 µM, stronger effect = higher value
reported property: inhibition (%)

- molecule: "CC(C)(CSc1nncn1N)NS(=O)(=O)c1ccc(Cl)cc1"
  unit abbrev: "%"
  result number: 4
- molecule: "CC(=O)c1cccc(NC(=O)CCOc2ccccc2)c1"
  unit abbrev: "%"
  result number: -83.6
- molecule: "CCOC(=O)Nc1ccc2c(c1)N(C(=O)OCCN(C)C)c1ccccc1CC2"
  unit abbrev: "%"
  result number: 30.5
- molecule: "O=C1CC(c2cccs2)CC2=C1C(c1ccccc1)n1ncnc1N2 (stereo not given)"
  unit abbrev: "%"
  result number: 25.2
- molecule: "COCCn1c(SCC(=O)Nc2sc(C)c(C)c2C#N)nnc1C(C)C"
  unit abbrev: "%"
  result number: 5.56
- molecule: "Nc1cc(=O)[nH]c(SCC(=O)Nc2ccc(Br)cc2)n1"
  unit abbrev: "%"
  result number: 4.12
- molecule: "CCN=C1SC(CC(=O)Nc2ccccc2)C(=O)N1CC (stereo not given)"
  unit abbrev: "%"
  result number: 30
- molecule: "O=C(NCc1cccnc1)C1CCCN(S(=O)(=O)c2ccc(Cl)cc2)C1 (stereo not given)"
  unit abbrev: "%"
  result number: -2.22
- molecule: "COc1cccc(CNC(=O)Cn2c(=O)oc3ccccc32)c1OC"
  unit abbrev: "%"
  result number: 31
- molecule: "O=C(CSc1ncnc2c1oc1ccccc12)Nc1ccccc1C(F)(F)F"
  unit abbrev: "%"
  result number: 1.95
- molecule: "O=C(OCCN(CCOC(=O)c1ccncc1)S(=O)(=O)c1cccs1)c1ccncc1"
  unit abbrev: "%"
  result number: 11.5
- molecule: "CCOc1ccc(-c2nnc(SCC(=O)N3CCN(c4ccccc4)CC3)o2)cc1"
  unit abbrev: "%"
  result number: 14.8
- molecule: "COc1ccc(OC)c(Nc2ncnc3c2cnn3-c2ccccc2)c1"
  unit abbrev: "%"
  result number: -62.3
- molecule: "Cc1c(C(=O)OCC(C)(C)CN(C)C)oc2ccccc12"
  unit abbrev: "%"
  result number: -27.6
- molecule: "C=CCn1c(SCC(=O)Nc2ccccc2OC)nnc1-c1ccco1"
  unit abbrev: "%"
  result number: 22.4
- molecule: "COc1ccc(N2CCN(C(=O)c3c(-c4ccccc4)noc3C)CC2)cc1"
  unit abbrev: "%"
  result number: -16.5
- molecule: "CC1NC(=O)NC1CCCCCC(=O)NCCc1ccccc1 (stereo not given)"
  unit abbrev: "%"
  result number: 15.3
- molecule: "COc1cc(NC(=O)C2C3C=CC(C3)C2C(=O)O)c(OC)cc1Cl (stereo not given)"
  unit abbrev: "%"
  result number: 20.2
- molecule: "CCSc1cc(C2C(C(=O)OC)=C(C)NC3=C2C(=O)CCC3)c(C)o1 (stereo not given)"
  unit abbrev: "%"
  result number: 22.6
- molecule: "COc1cccc(NS(=O)(=O)c2ccc3[nH]cc(C(=O)NC4CC4)c(=O)c3c2)c1"
  unit abbrev: "%"
  result number: 32.8
- molecule: "Cc1cccc(N2C(=O)CC(N3CCN(C(=O)c4ccccc4)CC3)C2=O)c1 (stereo not given)"
  unit abbrev: "%"
  result number: 16.7
- molecule: "COc1cc(OC)c(C2N(C)c3ccccc3N2C)cc1OC"
  unit abbrev: "%"
  result number: 26.3
- molecule: "Nc1nonc1N1CCCCC1"
  unit abbrev: "%"
  result number: 26.3
- molecule: "COc1ccc(Nc2ncc3c(n2)CC(c2ccc(OC)cc2)CC3=O)cc1 (stereo not given)"
  unit abbrev: "%"
  result number: -19.5
- molecule: "Clc1ccc(C2=Nn3c(nnc3-c3n[nH]c4c3CCC4)SC2)cc1Cl"
  unit abbrev: "%"
  result number: 33
- molecule: "Cc1cc(C)c2c(n1)nn1c(C3CC3)cc(C(F)(F)F)nc21"
  unit abbrev: "%"
  result number: 17.3
- molecule: "CC1(C)CC(=O)C(C(=O)CCCCC(=O)C2C(=O)CC(C)(C)CC2=O)C(=O)C1"
  unit abbrev: "%"
  result number: -20.4
- molecule: "CCOCCCNC(=O)C1CC(=O)N(C2CCCC2)C1 (stereo not given)"
  unit abbrev: "%"
  result number: 18.9
- molecule: "Cc1nnc(SCC(=O)N2CC(=O)Nc3ccccc32)n1-c1ccccc1"
  unit abbrev: "%"
  result number: 22.4
- molecule: "CCc1cccc(NC(=O)CCc2nc(-c3cccs3)no2)c1"
  unit abbrev: "%"
  result number: 18.5
